# System: HOP-62
# assay_text: NCI tumour cell line growth inhibition, 48 h
The source made the active and inactive calls. Cut-off read from the data, not from the text of the source: active = GI50 up to about 1.1 µM and inactive = higher.
Tick one outcome: active, inactive

Worked cases, answers included:
CCCCCCN(CCCCCC)CCC(=O)c1ccc2cc(Br)c3ccccc3c2c1    inactive
CCCC(=O)N(C)/N=N/c1ccc(C(=O)OCC)cc1    inactive
N#Cc1c(C[n+]2ccccc2)c2ccccc2oc1=O    inactive
OC(NN=C1CCCC1)(C(F)(F)Cl)C(F)(F)Cl    inactive
COCN1C(=O)[C@@H]2CCCN2C(=O)c2cc(N)ccc21    inactive

Dear colleague, could you share the recorded outcome for C=C1COC(O)(C2OCOC(C3CC(=O)NC(=O)C3)C2O)C1C (configuration not stated) when you have a moment? active

What call does the record list for "Oc1ccc(Br)cc1/C=N/c1ccc(Oc2ccc(/N=C/c3cc(Br)ccc3O)cc2)cc1" ? inactive

Give the logged outcome of this assay for the following compound: COC(=O)C(C(=O)c1ccccc1)C(C(=O)C(=O)Nc1ccc(OC)cc1OC)C(=O)C(=O)c1ccc(C)cc1 (configuration not stated) inactive

Hi, sorry to bother you, what did the test record for "COc1nc(C(Cl)(Cl)Cl)c(Cl)c(O)c1Cl" ? inactive

* * *

# Tested on: M14
# assay_text: NCI tumour cell line growth inhibition, 48 h
Calls of active or inactive are those of the source. Cut-off read from the data, not from the text of the source: active = GI50 up to about 1.1 µM and inactive = higher.
// allowed return values: active, inactive

Can you look up the reported call for COC(=O)C1(C)CCC(c2ccc(C)cc2)=C(CC(=O)O)C1 (stereo unspecified) for me? inactive

Field: outcome | Entry: "Cn1c2ccccc2c2c(=O)[nH]c(=O)[nH]c21" inactive

I would be grateful if you could indicate the recorded call for "O=C(O)CSc1nnc(-c2ccc(O)cc2)[nH]1" . inactive

Hi, sorry to bother you, what did the test record for CN(Cc1cnc2nc(N)nc(N)c2n1)c1ccc(C(=O)NC(CCS(=O)(=O)O)C(=O)O)cc1 (stereo unspecified) ? active

Write down the call the test reported for this compound. Item: "N=C(N)N/N=C/c1c(Cl)nc2n1CCS2" inactive

Assay outcome for "CN(C)CCCN1c2ccccc2CCc2cc([N+](=O)[O-])ccc21" : what was it? inactive

For this compound, state the assay outcome: "CCOC(=O)CC[C@H](NC(=O)c1nc[nH]c1[N+](=O)[O-])C(=O)OCC" inactive

* * *

# System: K562
# assay_text: NCI tumour cell line growth inhibition, 48 h
Activity calls are given as the source filed them. No stated cut-off is given here; in the data, active = GI50 up to about 1.1 µM and inactive = higher.
endpoint_label: GI50

Sample records with GI50:
CCN(CC)C(=S)N/N=C/c1cc(OC)ccc1O    4.52 µM (inactive)
O=[N+]([O-])c1ccc(N2C[N+](c3ccccc3)=NC(c3ccccc3)=N2)cc1    27 µM (inactive)
O=C(Cc1ccc2ccccc2c1)NCc1ccc(C(=O)NCCc2ccccc2)cc1    > 100 µM (inactive)
CC(=O)CC(=O)N1CCOC1=O    > 10 µM (inactive)
N#CCCN(CCC#N)c1ccc(/C=N\c2ccc(F)cc2)cc1    0.137 µM (active)

Report GI50 for "COC(=O)c1ccccc1/C=C1/Cc2cccc(C)c2C1=O" please. > 100 µM (inactive)

# get_value(readout='GI50', item= CCOC(=O)N1CCC(=O)C(CNC23CC4CC(CC(C4)C2)C3)C1 (centres undefined) ) 13.1 µM (inactive)

* * *

# System: MDA-MB-231
# assay_text: NCI tumour cell line growth inhibition, 48 h
Active and inactive are the calls of the source. Rule as the data show it: active = GI50 up to about 1.1 µM and inactive = higher.
Listed here: items and their measured GI50.

Look over these answered cases.
CSc1ccc(C(=C=C=C(c2ccc(SC)s2)c2ccc(SC)s2)c2ccc(SC)s2)s1    > 10 µM (inactive)
CCN(CC)C(=S)N/N=C/c1cc(OC)ccc1O    30.7 µM (inactive)
CC(=O)NC(CSC1=C2NC(=O)\C=C/C=C\C=C/C(C)C(O)CC(=O)/C(C)=C\CC(O)/C=C\C(C)C(O)C(C)C=C(C)C(=O)c3c(O)c(C)cc(c3C1=O)C2=O)C(=O)O (stereo not given)    24.6 µM (inactive)
Cn1nc2ccc([N+](=O)[O-])cc2[n+]1[O-]    > 100 µM (inactive)

Shifting focus to the molecule that follows.
So what GI50 did "CN(C)CCCN1c2ccccc2CCc2cc([N+](=O)[O-])ccc21" get with MDA-MB-231? 22.2 µM (inactive)

The values you see were collected from ChEMBL document CHEMBL1201862.
